Reference for the values: the supplement of paper PMC11451515

Test system: SEM cells
Assay: cell viability relative to DMSO control; higher = less cytotoxic
Conditions: RPMI 5 mM glucose + 10% dialyzed FBS; 48 h; 1.71 µM
Simple rule here: cell viability less than 90% is Satisfied, otherwise Not satisfied.

[[record]]
molecule = "O=C1CSC(=O)N1C(CCc1ccncc1)COc1ccc(-c2cccc([N+](=O)[O-])c2)cc1 (stereo not drawn)"
target_entity = "SEM cells"
class = "Not satisfied"


Data request: Below 90% on cell viability? Entry COc1cc(N2CCC(O)CC2)ccc1Nc1cc(Nc2ccccc2[S+](=O)([O-])C(C)C)c2cc[nH]c2n1
Data returned: Satisfied

Data request: Below 90% on cell viability? Entry COc1cc2c(N3CCN(C(=O)Nc4ccc(OC(C)C)cc4)CC3)ncnc2cc1OCCCN1CCCCC1
Data returned: Satisfied

Data request: Below 90% on cell viability? Entry COCCOC(=O)C/1=C(C)/NC/2=C(C1C3=CC=CC(=C3)O)/C(=O)CC(C2)C4=C(OC)C=CC=C4 (stereo not drawn)
Data returned: Not satisfied

Data request: Below 90% on cell viability? Entry COC1=CC=C2Nc3cc(Cl)ccc3C(N=C3C=C(CN4CCCC4)C(=O)C(CN4CCCC4)=C3)=C2N1
Data returned: Satisfied

Data request: Below 90% on cell viability? Entry ClC1=CC=C(CCCOC/2=N/NC(=O)C(=C2NCC3=CN=CC=C3)/Br)C=C1
Data returned: Not satisfied

Data request: Below 90% on cell viability? Entry O=C1NC(=O)[C@@H](c2cn3c4c(cccc24)CCC3)[C@@H]1c1c[nH]c2ccccc12
Data returned: Satisfied

Data request: Below 90% on cell viability? Entry Cc1ccc(NC(=O)c2ccc(CN3CCN(C)CC3)cc2)cc1Nc1nccc(-c2cccnc2)n1
Data returned: Not satisfied

* * *

System: NOMO1
Experiment: cell viability relative to DMSO control; higher = less cytotoxic
Details: RPMI 5 mM glucose + 10% FBS; 48 h; 5.12 µM
Simple rule here: cell viability less than 90% is YES, otherwise NO.

[[record]]
compound = "Fc1cc(-c2cccc3ncc(-c4cnn(C5CCNCC5)c4)nc23)cc(F)c1CN1CCOCC1"
class = "YES"

[[record]]
compound = "C[C@]\\1(CCS\\C(=N1)N)C2=CC(=C(F)C=C2F)C3=CN=CN=C3"
class = "YES"

[[record]]
compound = "C=C(C)[C@@H]1CC[C@]2(C)CC[C@]3(C)[C@H](CC[C@@H]4[C@@]5(C)CC[C@H](O)C(C)(C)[C@@H]5CC[C@]43C)[C@@H]12"
class = "NO"


Data request: Below 90% on cell viability? Entry COc1cc2nccc(Oc3ccc(NC(=O)Nc4ccc(F)cc4F)c(F)c3)c2cc1OC
Data returned: YES

Data request: Below 90% on cell viability? Entry C#CCN(C)[C@H](C)Cc1ccccc1
Data returned: YES

Data request: Below 90% on cell viability? Entry COc1ccc(/C=C\c2cc(OC)c(OC)c(OC)c2)cc1O
Data returned: YES

* * *

# AUC of viability dose-response curve annotations
Test system: SEM cells
Experiment: AUC of viability dose-response curve (% viability x log10 dose units); higher = less sensitive
Settings: RPMI 5 mM glucose + 10% FBS; 48 h
API note: the answer field is a bare number with no unit suffix.

// worked examples, AUC of viability dose-response curve included
[[record]]
entry_smiles = "FC(F)(F)c1ccc(Nc2nc3cc(Oc4ccnc(-c5ncc(C(F)(F)F)[nH]5)c4)ccc3[nH]2)cc1"
experimental_value = 439

[[record]]
entry_smiles = "NC(=O)c1ccc(-c2nc(-c3ccc4c(c3)OCCO4)c(-c3ccccn3)[nH]2)cc1"
experimental_value = 462

[[record]]
entry_smiles = "CN1[C@@H]2CCC[C@H]1C[C@@H](NC(=O)c1nn(C)c3ccccc13)C2.Cl"
experimental_value = 434

[[record]]
entry_smiles = "CC(=O)N1CCN(c2ccc(OCc3nn(C)c(C)c3-c3cccc4c(CCCOc5cc(C)c(Cl)c(C)c5)c(C(=O)O)n(Cc5cccnc5)c34)cc2)CC1"
experimental_value = 413

[[record]]
entry_smiles = "COc1cc2c(Nc3ccc(NC(=O)c4ccccc4)cc3)ncnc2cc1OCCCN1CCOCC1"
experimental_value = 389


Now turn to the next compound.
Data request: Item under review: C[N]1C=NC=C1[C@@](N)(C2=CC=C(Cl)C=C2)C3=CC=C4N(C)C(=O)\C=C(\C5=CC=CC(=C5)Cl)C4=C3 . Reported AUC of viability dose-response curve?
Data returned: 279

* * *

Test system: NOMO1
Test: cell viability relative to DMSO control; higher = less cytotoxic
Conditions: RPMI 5 mM glucose + 10% dialyzed FBS; 48 h; 0.569 µM
measurement.kind: cell viability (%)
Output spec: scalar in %, unitless text.

// worked examples, cell viability included
[[record]]
entry_smiles = "CN1C(=O)\\C(=C/C(=C1/NC2=C(F)C=C(I)C=C2)C(=O)NOCCO)C"
result_units = "%"
experimental_value = 40

[[record]]
entry_smiles = "O=C/1\\C=C(/OC(=C1)/C2=C3SC4=C(SC3=CC=C2)C=CC=C4)N5CCOCC5"
result_units = "%"
experimental_value = 107

[[record]]
entry_smiles = "O=C1Nc2ccccc2/C1=C1\\Nc2ccccc2C1=O"
result_units = "%"
experimental_value = 89.4

[[record]]
entry_smiles = "Cc1ccc(-n2nc(C(C)(C)C)cc2NC(=O)Nc2ccc(OCCN3CCOCC3)c3ccccc23)cc1"
result_units = "%"
experimental_value = 118

[[record]]
entry_smiles = "C[C@]\\1(CCS\\C(=N1)N)C2=CC(=C(F)C=C2F)C3=CN=CN=C3"
result_units = "%"
experimental_value = 100


Data request: Item under review: CNC(=O)[C@H](Cc1ccccc1)NC(=O)[C@H](CC(C)C)[C@H](CSc1cccs1)C(=O)NO . Reported cell viability?
Data returned: 101

Data request: Item under review: CC(C)(C)OC(=O)CN(Cc1ccc(Cl)cc1)Cc1ccc([N+](=O)[O-])s1 . Reported cell viability?
Data returned: 103

Data request: Item under review: C[C@H]1CN(C[C@@H](C)O1)CC(=O)NC2=CC=C3SC4=C(CC3=C2)C=CC=C4\C5=C\C(=O)\C=C(/O5)N6CCOCC6 . Reported cell viability?
Data returned: 100

Data request: Item under review: C=C(C)[C@@H]1CC[C@]2(C)CC[C@]3(C)[C@H](CC[C@@H]4[C@@]5(C)CC[C@H](O)C(C)(C)[C@@H]5CC[C@]43C)[C@@H]12 . Reported cell viability?
Data returned: 113

* * *

System: P12-Ichikawa
Assay: cell viability relative to DMSO control; higher = less cytotoxic
Conditions: HPLM + 10% dialyzed FBS; 48 h; 0.0632 µM
# cell viability annotations
Output spec: scalar in %, unitless text.

Data request: Item under review: CO/N=C(/C(=O)N[C@@H]1C(=O)N2C(C(=O)O)=C(Cn3ccc(=N)n3CCO)CS[C@H]12)c1csc(N)n1 . Reported cell viability?
Data returned: 135

Data request: Item under review: COc1ccc(Cc2nccc3cc(OC)c(OC)cc23)cc1OC . Reported cell viability?
Data returned: 125

Data request: Item under review: Cc1cc(Nc2ncc(Cl)c(Nc3ccccc3[S+](=O)([O-])C(C)C)n2)c(OC(C)C)cc1C1CCNCC1 . Reported cell viability?
Data returned: 112

* * *

# AUC of viability dose-response curve annotations
System: P12-Ichikawa
Assay: AUC of viability dose-response curve (% viability x log10 dose units); higher = less sensitive
Details: RPMI 5 mM glucose + 10% dialyzed FBS; 48 h

// worked examples, AUC of viability dose-response curve included
[[record]]
compound = "O=C1\\C=C(/OC2=C1C=CC=C2C3=CC=CC=C3)N4CCOCC4"
measurement_kind = "AUC of viability dose-response curve"
experimental_value = 397

[[record]]
compound = "C\\C1=N\\N=C(\\C2=CC=C(N)C=C2)C3=CC4=C(OCO4)C=C3C1"
measurement_kind = "AUC of viability dose-response curve"
experimental_value = 465

[[record]]
compound = "Cc1cccc(C)c1NC(=O)CN1CCCC1=O"
measurement_kind = "AUC of viability dose-response curve"
experimental_value = 458

[[record]]
compound = "COC(=O)C1=C(C)NC(C)=C(C(=O)OCCN2CCN(C(c3ccccc3)c3ccccc3)CC2)C1c1cccc([N+](=O)[O-])c1.Cl.Cl (stereo not drawn)"
measurement_kind = "AUC of viability dose-response curve"
experimental_value = 442

[[record]]
compound = "Cc1cc(O)c2c3c4c(cc(O)c13)C(C)(C)C(=O)c1c(O)cc(O)c(c1-4)C2=O"
measurement_kind = "AUC of viability dose-response curve"
experimental_value = 454

[[record]]
compound = "O=C(NC1CCOCC1)c1ccc(-c2cc(-c3c[nH]nc3-c3ccccn3)ccn2)cc1"
measurement_kind = "AUC of viability dose-response curve"
experimental_value = 435

[[record]]
compound = "CN1CCCN(C(=O)c2cccc(-c3ccc(/C=C4/C(=O)Nc5ccc(Cl)cc54)o3)c2)CC1"
measurement_kind = "AUC of viability dose-response curve"
experimental_value = 396


Now turn to the next compound.
Data request: Item under review: COc1ccc(CCN2CCN(CCCc3ccccc3)CC2)cc1OC . Reported AUC of viability dose-response curve?
Data returned: 473
